// data source = paper PMC10349193

# experiment description: physchem

# chemical string, solubility
rows = [
    ("Cc1cnc(NC(=O)c2cc(Oc3cnc(C(=O)N(C)C)nc3)c3cc(C)oc3c2)cn1", "~3 µg/mL"),
]

====

Documented efflux ratio at 2 h, 10 μM across a set of molecules
# target or system: P-gp (Homo sapiens, UniProt P08183)
# Construct: endogenous in cells; host or cells: Caco-2
# Sequence (P08183 whole entry): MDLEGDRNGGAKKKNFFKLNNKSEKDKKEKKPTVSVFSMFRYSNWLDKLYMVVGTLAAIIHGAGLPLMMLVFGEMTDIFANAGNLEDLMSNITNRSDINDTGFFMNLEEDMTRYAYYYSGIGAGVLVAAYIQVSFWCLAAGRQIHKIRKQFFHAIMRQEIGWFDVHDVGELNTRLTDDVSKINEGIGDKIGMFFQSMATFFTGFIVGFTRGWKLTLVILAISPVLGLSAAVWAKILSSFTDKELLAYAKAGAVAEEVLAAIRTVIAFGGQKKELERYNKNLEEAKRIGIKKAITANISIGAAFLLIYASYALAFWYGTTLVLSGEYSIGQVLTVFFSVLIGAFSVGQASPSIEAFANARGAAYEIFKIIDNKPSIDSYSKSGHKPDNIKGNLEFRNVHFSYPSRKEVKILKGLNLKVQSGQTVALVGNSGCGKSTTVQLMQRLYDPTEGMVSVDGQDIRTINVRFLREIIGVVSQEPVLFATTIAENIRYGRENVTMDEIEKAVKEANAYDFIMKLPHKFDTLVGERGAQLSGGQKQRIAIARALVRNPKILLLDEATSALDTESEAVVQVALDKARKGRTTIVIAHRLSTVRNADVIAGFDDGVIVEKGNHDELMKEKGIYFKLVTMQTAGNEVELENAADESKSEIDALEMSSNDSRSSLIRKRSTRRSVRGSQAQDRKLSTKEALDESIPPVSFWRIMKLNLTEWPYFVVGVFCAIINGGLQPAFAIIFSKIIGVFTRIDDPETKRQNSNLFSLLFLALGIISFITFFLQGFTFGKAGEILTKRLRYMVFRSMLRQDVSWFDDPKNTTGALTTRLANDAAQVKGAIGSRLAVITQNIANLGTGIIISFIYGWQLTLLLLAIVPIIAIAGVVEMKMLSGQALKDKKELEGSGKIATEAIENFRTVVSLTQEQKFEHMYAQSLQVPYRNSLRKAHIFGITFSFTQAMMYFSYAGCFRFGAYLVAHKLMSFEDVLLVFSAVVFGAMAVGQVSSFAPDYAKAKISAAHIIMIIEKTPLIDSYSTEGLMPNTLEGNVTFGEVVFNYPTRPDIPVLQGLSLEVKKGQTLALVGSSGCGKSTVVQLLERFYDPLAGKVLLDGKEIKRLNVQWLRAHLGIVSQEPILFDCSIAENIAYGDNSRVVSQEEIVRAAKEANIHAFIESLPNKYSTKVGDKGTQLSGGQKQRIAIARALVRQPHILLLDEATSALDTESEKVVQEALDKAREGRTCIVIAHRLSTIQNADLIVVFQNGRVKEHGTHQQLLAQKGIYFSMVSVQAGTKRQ
# experiment description: P-gp substrate assessment in Caco-2 monolayers with verapamil
# Assay type: in vitro ADME
# condition: Caco-2, with verapamil (concentration not stated), read-out: Efflux ratio P app,BL→AP/AP→BL, with inhibitor
readout kind: efflux ratio at 2 h, 10 μM

# molecule, readout number
records = [
    ("CC(C)(C)NCC(O)COc1cccc2c1CC(O)C(O)C2 (stereo not drawn)", 0.554),
    ("CC(=O)O[C@H]1C(=O)[C@@]2(C)[C@H]([C@H](OC(=O)c3ccccc3)[C@]3(O)C[C@H](OC(=O)[C@H](O)[C@@H](NC(=O)c4ccccc4)c4ccccc4)C(C)=C1C3(C)C)[C@]1(OC(C)=O)CO[C@@H]1C[C@@H]2O", 1.09),
    ("CC(C)NCC(O)COc1cccc2ccccc12 (stereo not drawn)", 0.382),
]
